# TESTED_TARGET: murine E^d MHC class II allele (Mus musculus, UniProt P01904+P01915)
# Sequence (P01904 26-255): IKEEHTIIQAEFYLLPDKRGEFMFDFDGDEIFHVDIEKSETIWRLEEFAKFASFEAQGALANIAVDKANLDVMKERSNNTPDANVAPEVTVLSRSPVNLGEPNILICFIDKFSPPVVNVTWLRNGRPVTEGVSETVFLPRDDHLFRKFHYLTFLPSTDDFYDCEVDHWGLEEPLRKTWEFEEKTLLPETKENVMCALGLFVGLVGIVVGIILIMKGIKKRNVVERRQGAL
# Sequence (P01915 27-264 limits assumed): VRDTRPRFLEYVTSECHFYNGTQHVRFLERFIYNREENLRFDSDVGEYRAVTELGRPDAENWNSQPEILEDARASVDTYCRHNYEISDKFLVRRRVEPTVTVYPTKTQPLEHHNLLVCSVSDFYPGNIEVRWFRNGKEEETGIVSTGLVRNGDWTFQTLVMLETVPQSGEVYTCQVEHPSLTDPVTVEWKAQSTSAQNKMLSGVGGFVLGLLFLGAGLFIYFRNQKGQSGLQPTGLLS
# ASSAY_TEXT: antigenic peptide prepulse assay, E^d allele (fixed APC prepulsed with HEL106-116)
# Type: cell-based
# Parameters: The A20 and CH27 B cell lymphoma lines express H-2^d and H-2^k alleles, respectively; endogenous in cells; host or cells: A20 B cell lymphoma (mitomycin C-treated or paraformaldehyde-fixed)
# ASSAY_SETUP: Table 25; AE peptide 64 μM; prepulse 24 μM antigenic peptide; supernatant 1:4
Non-standard residues stand in square brackets, D forms with d. hArg = N=C(N)NCCCC[C@H](N)C(=O)O; Cit = NC(=O)NCCC[C@H](N)C(=O)O
OUTCOME_MEASURE: Activity in antigenic peptide prepulse assay, E^d (baseline = 1.00)

1. Ac-LRNKNPK-NH2 [AE349] = 0.69
2. Ac-LRMK HArg PK-NH2 (Ac-LRMK[hArg]PK-NH2; SMILES CSCC[C@H](NC(=O)[C@H](CCCNC(=N)N)NC(=O)[C@H](CC(C)C)NC(C)=O)C(=O)N[C@@H](CCCCN)C(=O)N[C@@H](CCCCNC(=N)N)C(=O)N1CCC[C@H]1C(=O)N[C@@H](CCCCN)C(N)=O) [AE227] = 0.28
3. Ac-LRMKLP F-NH2 (Ac-LRMKLPF-NH2) [AE248] = 0.63
4. Ac-ARNKNPK-NH2 [AE346] = 0.65
5. Ac-LRMKLPK-NH2 [AE114] = 0.31
6. Ac-LRMK N PK-NH2 (Ac-LRMKNPK-NH2) [AE232] = 0.44
7. Ac-LR L KLPK-NH2 (Ac-LRLKLPK-NH2; not fully specified; printed as Ac-LR L KLPK-NH2) [AE206] = 0.18
8. Ac-LRMKNPF-NH2 [AE350] = 0.82
9. Ac-Y[Cit]MKLPKSAK-NH2 [AE131] = 0.61
10. Ac-LRLKWPK-NH2 [AE309] = 0.48
11. Ac-ARMKNPK-NH2 [AE345] = 0.61

---

# TESTED_TARGET: murine E^d MHC class II allele (Mus musculus, UniProt P01904+P01915)
# Sequence (P01904 26-255): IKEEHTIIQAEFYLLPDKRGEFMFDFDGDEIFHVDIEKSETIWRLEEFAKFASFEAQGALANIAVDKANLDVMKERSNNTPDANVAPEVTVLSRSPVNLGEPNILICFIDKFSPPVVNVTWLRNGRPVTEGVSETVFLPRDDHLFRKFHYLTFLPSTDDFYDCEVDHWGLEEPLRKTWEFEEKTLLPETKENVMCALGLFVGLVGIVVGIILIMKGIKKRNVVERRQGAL
# Sequence (P01915 27-264 limits assumed): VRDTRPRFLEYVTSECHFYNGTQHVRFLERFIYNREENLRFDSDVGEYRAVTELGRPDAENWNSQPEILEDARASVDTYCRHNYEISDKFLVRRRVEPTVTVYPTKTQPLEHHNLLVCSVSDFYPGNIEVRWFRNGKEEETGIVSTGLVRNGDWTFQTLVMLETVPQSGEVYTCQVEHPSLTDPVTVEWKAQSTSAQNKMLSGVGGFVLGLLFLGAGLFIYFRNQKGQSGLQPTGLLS
# ASSAY_TEXT: antigenic peptide prepulse assay, E^d allele (fixed APC prepulsed with HEL106-116)
# Type: cell-based
# Parameters: The A20 and CH27 B cell lymphoma lines express H-2^d and H-2^k alleles, respectively; endogenous in cells; host or cells: A20 B cell lymphoma (mitomycin C-treated or paraformaldehyde-fixed)
# ASSAY_SETUP: Table 24; AE peptide 64 μM; prepulse 24 μM antigenic peptide; supernatant 1:4
Activity in antigenic peptide prepulse assay, E^d (baseline = 1.00) by entry:
OUTCOME_MEASURE: Activity in antigenic peptide prepulse assay, E^d (baseline = 1.00)

1. Ac-LRLKWPK-NH2 [AE309] = 0.44
2. Ac-LRMKLP k-NH2 [AE166] = 0.65
3. Ac-LRLKYPK-NH2 [AE301] = 0.48
4. Ac- (mL) RMKLPK-NH2 [AE174] = 0.60

---

# TESTED_TARGET: murine E^d MHC class II allele (Mus musculus, UniProt P01904+P01915)
# ASSAY_TEXT: antigenic peptide prepulse assay, E^d allele (fixed APC prepulsed with HEL106-116)
# Type: cell-based
# Parameters: The A20 and CH27 B cell lymphoma lines express H-2^d and H-2^k alleles, respectively; endogenous in cells; host or cells: A20 B cell lymphoma (mitomycin C-treated or paraformaldehyde-fixed)
# ASSAY_SETUP: Table 20; AE peptide 64 μM; prepulse 3 μM antigenic peptide; supernatant 1:2
OUTCOME_MEASURE: Activity in antigenic peptide prepulse assay, E^d (baseline = 1.00)

1) Ac-Y D MKLPKSAK-NH2 [AE135] = 0.70
2) Ac-YAMKLPKSAK-NH2 [AE121] = 0.53
3) Ac-Y M MKLPKSAK-NH2 [AE141] = 0.41

---

# TESTED_TARGET: murine E^d MHC class II allele (Mus musculus, UniProt P01904+P01915)
# ASSAY_TEXT: processed antigen assay, E^d allele (APC pulsed with native HEL)
# Type: cell-based
# Design: The A20 and CH27 B cell lymphoma lines express H-2^d and H-2^k alleles, respectively; endogenous in cells; host or cells: A20 B cell lymphoma (mitomycin C-treated or paraformaldehyde-fixed)
# ASSAY_SETUP: Table 32; native HEL prepulse 20 μM; AE peptide 64 μM; supernatant dilution 1:4
Non-standard residues stand in square brackets, D forms with d. Cit = NC(=O)NCCC[C@H](N)C(=O)O
OUTCOME_MEASURE: T cell response relative to baseline (None = 1.0), E^d

1) Ac-LRMKLP[Cit]-NH2 [AE241] = 0.63
2) Ac-LRLKWPK-NH2 [AE309] = 0.55
3) Ac-LKMKYPK-NH2 [AE362] = 0.58
4) Ac-LRMK Y PK-NH2 (Ac-LRMKYPK-NH2; not fully specified; printed as Ac-LRMK Y PK-NH2) [AE235] = 0.46
5) Ac-LRLKYPK-NH2 [AE301] = 0.54
6) Ac-LRM M LPK-NH2 (Ac-LRMMLPK-NH2) [AE220] = 0.63
7) Ac-LRLKYPN-NH2 [AE368] = 0.55
8) Ac-Y K MKLPKSAK-NH2 [AE134] = 0.50

---

# TESTED_TARGET: murine E^d MHC class II allele (Mus musculus, UniProt P01904+P01915)
# Sequence (P01904 26-255): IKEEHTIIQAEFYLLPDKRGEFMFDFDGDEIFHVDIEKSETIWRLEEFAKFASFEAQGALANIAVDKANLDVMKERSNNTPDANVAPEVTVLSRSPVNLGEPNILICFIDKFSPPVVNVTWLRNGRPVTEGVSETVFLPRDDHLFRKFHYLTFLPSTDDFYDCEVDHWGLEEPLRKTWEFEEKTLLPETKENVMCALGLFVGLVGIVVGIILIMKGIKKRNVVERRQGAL
# Sequence (P01915 27-264 limits assumed): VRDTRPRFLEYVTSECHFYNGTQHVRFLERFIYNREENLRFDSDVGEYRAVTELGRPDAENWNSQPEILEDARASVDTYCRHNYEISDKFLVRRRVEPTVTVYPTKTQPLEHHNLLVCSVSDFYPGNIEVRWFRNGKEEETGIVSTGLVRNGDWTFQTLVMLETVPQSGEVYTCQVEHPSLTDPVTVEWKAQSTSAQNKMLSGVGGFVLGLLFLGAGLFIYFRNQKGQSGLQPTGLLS
# ASSAY_TEXT: antigenic peptide prepulse assay, E^d allele (fixed APC prepulsed with HEL106-116)
# Assay type: cell-based
# Set-up: The A20 and CH27 B cell lymphoma lines express H-2^d and H-2^k alleles, respectively; endogenous in cells; host or cells: A20 B cell lymphoma (mitomycin C-treated or paraformaldehyde-fixed)
# ASSAY_SETUP: Table 26; AE peptide 64 μM; prepulse 24 μM antigenic peptide; supernatant 1:2
Non-standard residues stand in square brackets, D forms with d. hArg = N=C(N)NCCCC[C@H](N)C(=O)O; Cit = NC(=O)NCCC[C@H](N)C(=O)O
OUTCOME_MEASURE: Activity in antigenic peptide prepulse assay, E^d (baseline = 1.0)

1) Ac-LKMKYPK-NH2 [AE362] = 0.76
2) Ac-LRMKLP[Cit]-NH2 [AE241] = 0.70
3) Ac-LRMKLP N-NH2 (Ac-LRMKLPN-NH2) [AE246] = 0.69
4) Ac-LRMKYPN-NH2 [AE370] = 0.74
5) Ac-LRMKLPK-NH2 [AE114] = 0.28
6) Ac-Y[hArg]MKLPKSAK-NH2 [AE132] = 0.82
7) Ac-LRMKYP[Cit]-NH2 [AE364] = 0.34
